Tested on: DeltatarO mutant
Test: S. aureus survival, RN4220 and DeltatarO strains – OD600, teichoic acid synthesis inhibitors, primary screen (AID 463173)
Details: S. aureus RN4220 wild type/DeltatarO growth, OD600, 18 h, stronger effect = lower value, screened at 18.75 µg/mL (by protocol)
Among all 52,000 compounds or so, about 4,300 (8.3%) were called active. For the sample, actives were picked, then their nearest neighbours and some compounds at random.
The label true is reserved for survival strictly under 70%; false covers values equal to or above it.

[[record]]
compound = "CCc1c(C)sc2c1CCN(Cc1cccc(OC)c1)C2c1ccccc1 (configuration not stated)"
experimental_system = "DeltatarO mutant"
category_label = "true"

[[record]]
compound = "Cc1ccccc1CNC(=O)c1nn(-c2ccccc2F)nc1CO"
experimental_system = "DeltatarO mutant"
category_label = "false"

[[record]]
compound = "O=C(c1cnc2c(c1)COc1ccc(Cl)cc1-2)c1ccccc1O"
experimental_system = "DeltatarO mutant"
category_label = "false"

[[record]]
compound = "Cc1ccc2c(c1)-c1ncc(C(=O)c3cc(Br)ccc3O)cc1CO2"
experimental_system = "DeltatarO mutant"
category_label = "true"

[[record]]
compound = "CC(=O)Nc1ccc(OCc2cc(=O)n3ccccc3n2)cc1"
experimental_system = "DeltatarO mutant"
category_label = "false"

[[record]]
compound = "CN1CCN(C(CNC(=O)c2ccccc2)c2ccc3c(c2)OCO3)CC1 (configuration not stated)"
experimental_system = "DeltatarO mutant"
category_label = "false"

[[record]]
compound = "Nc1nn(-c2ccccc2)nc1NC=O"
experimental_system = "DeltatarO mutant"
category_label = "false"

[[record]]
compound = "CC(NC1=NCCN1)C(=O)O (configuration not stated)"
experimental_system = "DeltatarO mutant"
category_label = "false"

[[record]]
compound = "Cc1ccc2c(c1)-c1nc(-c3ccccc3)cc(-c3ccccc3)c1CO2"
experimental_system = "DeltatarO mutant"
category_label = "false"

[[record]]
compound = "Nc1nonc1-c1nc2ccccc2n1CC(=O)Nc1ccccc1C(=O)O"
experimental_system = "DeltatarO mutant"
category_label = "true"

[[record]]
compound = "Cc1cc(O)c(C(=O)c2cnc3c(c2)COc2ccccc2-3)cc1Cl"
experimental_system = "DeltatarO mutant"
category_label = "false"

